# measuredOn: human S1PR4 (Homo sapiens, UniProt O95977)
# Construct: host or cells: CHO-K1
# Sequence (O95977 whole entry): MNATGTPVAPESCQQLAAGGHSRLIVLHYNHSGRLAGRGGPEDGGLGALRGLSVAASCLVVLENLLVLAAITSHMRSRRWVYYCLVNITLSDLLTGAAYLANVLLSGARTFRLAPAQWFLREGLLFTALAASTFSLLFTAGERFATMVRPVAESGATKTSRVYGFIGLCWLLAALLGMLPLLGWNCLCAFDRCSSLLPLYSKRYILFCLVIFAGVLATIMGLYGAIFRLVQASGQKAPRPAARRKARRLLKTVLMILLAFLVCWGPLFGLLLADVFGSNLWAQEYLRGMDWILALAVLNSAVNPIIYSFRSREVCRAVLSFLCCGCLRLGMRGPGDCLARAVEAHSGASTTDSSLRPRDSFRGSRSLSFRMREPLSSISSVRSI
# procedureSummary: Intracellular Ca2+ release (FLIPR) agonist potency, S1P4
# Format: cell-based
# assayConditions: recombinant CHO-K1 cells expressing human S1PR4, aequorin, Gq/i5; Calcium 5 FLIPR; read-out: S1P4 EC50
# EC50 per entry

# compound, EC50
records = [
    ("O=C(O)CCOC1CCc2cc(OCc3cccc(Cl)c3Cl)ccc2C1 (stereo not shown)", "> 1000 nM"),
    ("O=C(O)C1CN(C2COc3cc(C#Cc4ccccc4OC(F)F)ccc3C2)C1 (stereo not shown)", "> 1000 nM"),
    ("O=C(O)C1CN(C2COc3cc(OCc4c(F)cccc4F)ccc3C2)C1 (stereo not shown)", "> 1000 nM"),
]

Record request: EC50 value, item O=C(O)CCOC1CCc2cc(OCc3ccccc3OC(F)(F)F)ccc2C1 (stereo not shown)
> 1000 nM
